Reference source for all entries: patent US20230382979A1

# TARGET OF ASSAY: Receptor-binding domain (RBD) of the SARS-CoV-2 spike protein, WA01/2020 strain (SARS-CoV-2, WA01/2020 strain, UniProt P0DTC2 319-541)
# MEASUREMENT PROTOCOL: ELISA, antibody blocks RBD binding to human ACE2
READOUT: IC50 (nM)
Numbers only, in nM.

Please review the entries below; each comes with its answer.
# BINDER, RESULT UNITS, IC50
records = [
    ("antibody 1439 (antibody, V domains shown) VH: QVQLQESGPGLVKPSETLSLTCTVSGDSISTYYWSWIRQPPGKGLEWIGYIHYSGSTNYNPSLKSRVAVSVDTSKNQFSLKLSSVTAADTAVYYCARGGGVFGVVINFDYWGQGILVTVSS VL: NFMLTQPYSVSESPGKTVTISCTRSSGSIASNYVQWYQQRPGSAPTTVIYEDNQRPSGVPDRFSGSIDSSSNSASLTISGLKTEDEADYYCQSRDSSNPVVFGGGTKLTVL", "nM", 0.117),
    ("antibody 3086 (antibody, V domains shown) VH: QVQLQESGPGLVKPSETLSLTCTVSGGSISGHYWSWIRQPPGKGLEWIGYIYYSGSTNYNPSLKSRVTISVDTSVNQFSLKLSSVTAADTAVYYCARQEARDAVGNYFFDSWGQGTLVTVSS VL: QSALTQPASVSGSPGQSITISCSGTSSDIGSYDLVSWYQQHPGKAPKLLIYDVTKRPSGVSHRFSGSKSGNTASLTISGLQGEDEADYYCCSYVHFSTWVFGGGTKLTVL", "nM", 0.562),
    ("antibody 2892 (antibody, V domains shown) VH: QVQLVQSGAEVKKPGSSVKVSCKASGDAFISYAISWVRQAPGQGLEWMGGIIPIFGTANYAQKFQGRVTISADESTSTAYMELSRLRSEDTAVYYCARGGPEPYGSGSGYTPRYNWFDPWGQGTLVTVSS VL: QSALTQPRSVSGSPGQSVTISCTGTSSDVGGYNYVSWYQQHPGKAPKFMIYDVNRRPSGVPDRFSGSKSGNTASLTISGLQAEDEADYYCCSYAGTYTWVFGGGTKLTVL", "nM", 0.762),
    ("antibody 2050 (antibody, V domains shown) VH: QVQLVQSGAEVKKPGASVKVPCKVSGYTFTDHFIHWVRQAPGQGLEWMGWISPNSGGRNYTQKFQGRVTLTRDTAITTVHMDLSSLTPDDTAVYYCARDVRWAQLQGGFDLWGQGTMVTVSS VL: QSALTQPASVSGSPGQSITISCTGTSSDVGSYNLVSWYQQHPGKAPKLMIYEVSKRPSGVSNRFSGSKSGNTASLTISGLQADDEADYYCCSYAGDNNFLFGGGTSLTVL", "nM", 0.727),
    ("antibody 2619 (antibody, V domains shown) VH: EVQLVESGGGLVQPGRSLRLSCAASGFTFDDYAMHWVRQAPGKGLEWVSGISWNSGSIGYADSVKGRFTLSRDNAKNSLFLQMDSLRAEDTALYYCAKDVSYRSGSYYRFWGGSGSWGQGTLVTVSS VL: DIQMTQSPSSLSASVGDRVTITCRASLSIRSYLNWYQQKPGKPPKLLIYAASSLQSGVPSRFSGSGSGTDFTLTISSLQPEDFATYYCQQSYSTPLTFGGGTKVEIK", "nM", 0.479),
]

Give measured IC50 for every item shown.
1. antibody 1213 (antibody, V domains shown) VH: QMQLVQSGAEVKKTGSSVKVSCEASENTFTNRYLHWVRQAPGQALEWMGWITPFQGNTHYAQKFQDRVTITRDRSMNTVYMELSSLRSEDTAIYYCASGGQYGPGSYYFEFWGQGTLVTVSS VL: EIVMTQSPATLSVSPGERATLSCRASQSIRNNLAWYRQKPGQAPRLLIYGASTRAAGVPARFSGSGSGTEFTLTISSLQSEDFAVYYCQQYINWPPLTFGGGTKVEIK
2. antibody 4042 (antibody, V domains shown) VH: QITLKESGPTLVKPTQTLTLTCTFSGFSLSSGGVGVGWIRQPPGKALEWLALIYWDDDKRYRPSLKSRLTITRDTSTNQVVLTMTNMDPVDTATYFCARHQIATVFDHWGQGTLVTVSS VL: QSALTQPASVSGSPGQSITISCTGTSSDVGGYNYVSWYQQHPGKAPKLMIYEVSNRPSGVSSRFSGSKSGNTASLTISGLQAEDEADYYCSSYTRSSPLVAFGGGTKVTVL
3. antibody 980 (antibody, V domains shown) VH: QVQLVESGGGVVQPGRSLRLSCAASGFTFSRYGMHWVRQAPGKGLEWVALISSGGSNKYYADSVKGRFTISRDNSKNTLYLEMNSLRAEDTAVYYCAKDAIYDYIWGAYRENWFDPWGQGTLVTVSS VL: DIQMTQSPSSLSASVGDRVTITCRASQSISNYLNWYQQKPGKAPNLLIYAASSLQSGVPSRFSGSGSGTDFTLTISSLQPEDFATYYCQQTSSPPLTFGQGTKVEIK
4. antibody 2020 (antibody, V domains shown) VH: QVQLVQSGAEVKKPGASVKVSCKASGYTFTDYFMHWVRQAPGQGLEWMGWVNPLSGGTNFAQKFQGRVTMTSDTSITTVYMELSRLRSDDTAVYYCARDPPLYSSTYGMDVWGQGTTVTVSS VL: QSALTQPASVSGSPGQSITISCTGTSSDVGAYNYVSWYQQHPGKAPKLMIYDVSDRPSGVSNRFSGSKSGNTASLTISGLQAEDEADYYCSSYTISSSVVFGGGTKLTVL
5. antibody 935 (antibody, V domains shown) VH: EVQLVESGGGLVQPGGSLRLSCAASGFTVSSNYMSWVRQAPGKGLEWVSVIYSGGSTFYADSVKGRFTISRDNSRNTLYLQMNSLRAEDTAVYYCARDWGEFFFDFWGQGALVTVSS VL: EIVLTQSPGTLSLSPGERATLSCRASQTISSSYLAWYQQKPGQAPRLLISGASSRATGIPDRFSGSGSGTDFTLTISRLEPEDFAVYYCQQYGSSPRTFGQGTNVEIK

1. 7.74
2. 1.09
3. 0.86
4. 1.41
5. 0.83
